Measured ALBUMIN by item
# Organism: Rattus norvegicus
# Protocol Summary: DrugMatrix - Regimen: Daily Repeat
# Type: toxicity, organism-based, Sprague-Dawley
# Design: regimen Daily Repeat, gender Male, age 6-8 weeks
# Test Context: in vivo, po, 0 mg/kg, 120 h, tissue Plasma, route oral GAVAGE, dose level Control, time 5 day, vehicle 100 % WATER
Hi! Could you send only the number? It should be in G/DL, unit omitted.

// below: answered compounds
{"Compound": "Cc1ncc([N+](=O)[O-])n1CCO", "ALBUMIN (G/DL)": 4.07}
{"Compound": "C[N+](C)(C)CCO.[Cl-] [CHOLINE CHLORIDE]", "ALBUMIN (G/DL)": 4.08}
{"Compound": "CC(C)(C)c1ccc(C(=O)CCCN2CCC(OC(c3ccccc3)c3ccccc3)CC2)cc1", "ALBUMIN (G/DL)": 4.33}
{"Compound": "COC(=O)C1=C(C)NC(C)=C(C(=O)OCC(C)C)C1c1ccccc1[N+](=O)[O-] (stereo not given)", "ALBUMIN (G/DL)": 4.07}
{"Compound": "C[C@@H]1C[C@@H]([C@H](O)CC2CC(=O)NC(=O)C2)C(=O)[C@@H](C)C1 [CYCLOHEXIMIDE]", "ALBUMIN (G/DL)": 4.33}

Look up ALBUMIN of Nc1ccn([C@@H]2CS[C@H](CO)O2)c(=O)n1 and report it.
4.07

Look up ALBUMIN of CC(C)C[C@H](NC(=O)[C@@H](O)[C@H](N)Cc1ccccc1)C(=O)O and report it.
4.22

Look up ALBUMIN of ClC(Cl)Cl [CHLOROFORM] and report it.
4.07

Look up ALBUMIN of CC(C)NCC(O)COc1cccc2ccccc12 (stereo not given) and report it.
4.32

Look up ALBUMIN of COc1cc2ncnc(Nc3ccc(F)c(Cl)c3)c2cc1OCCCN1CCOCC1 and report it.
3.8

----------
# Species on record: Rattus norvegicus
# Protocol Summary: DrugMatrix - Regimen: Daily Repeat
# Type: toxicity, organism-based, Sprague-Dawley
# Set-up: regimen Daily Repeat, gender Male, age 6-8 weeks
# Test Context: in vivo, po, 0 mg/kg, 72 h, tissue Plasma, route oral GAVAGE, dose level Control, time 3 day, vehicle 100 % WATER
Measurement Name: PHOSPHORUS

// below: answered compounds
{"Compound": "C[N+](C)(C)CCO.[Cl-] [CHOLINE CHLORIDE]", "PHOSPHORUS": "14.27 mg/dL"}
{"Compound": "CC(C)(C)c1ccc(C(=O)CCCN2CCC(OC(c3ccccc3)c3ccccc3)CC2)cc1", "PHOSPHORUS": "11.8 mg/dL"}
{"Compound": "CC(C)NCC(O)COc1cccc2ccccc12 (stereo not given)", "PHOSPHORUS": "12.45 mg/dL"}
{"Compound": "ClC(Cl)Cl [CHLOROFORM]", "PHOSPHORUS": "11.95 mg/dL"}

Below: the item to evaluate.
Look up PHOSPHORUS of CC(C)C[C@H](NC(=O)[C@@H](O)[C@H](N)Cc1ccccc1)C(=O)O and report it.
12.18 mg/dL

----------
# Species: Rattus norvegicus
# Protocol Summary: DrugMatrix - Regimen: Daily Repeat
# Assay type: toxicity, organism-based, Sprague-Dawley
# Design: regimen Daily Repeat, gender Male, age 6-8 weeks
# Test Context: in vivo, po, 0 mg/kg, 120 h, tissue Blood, route oral GAVAGE, dose level Control, time 5 day, vehicle 100 % WATER
Measurement Name: ABSOLUTE LYMPHOCYTE
# include the unit after the value

// below: answered compounds
{"Compound": "CC(C)(C)c1ccc(C(=O)CCCN2CCC(OC(c3ccccc3)c3ccccc3)CC2)cc1", "ABSOLUTE LYMPHOCYTE": "13809 CELLS/uL"}
{"Compound": "Cc1ncc([N+](=O)[O-])n1CCO", "ABSOLUTE LYMPHOCYTE": "7583.83 CELLS/uL"}
{"Compound": "C[C@@H]1C[C@@H]([C@H](O)CC2CC(=O)NC(=O)C2)C(=O)[C@@H](C)C1 [CYCLOHEXIMIDE]", "ABSOLUTE LYMPHOCYTE": "8994.5 CELLS/uL"}
{"Compound": "CC(C)C[C@H](NC(=O)[C@@H](O)[C@H](N)Cc1ccccc1)C(=O)O", "ABSOLUTE LYMPHOCYTE": "13539.33 CELLS/uL"}
{"Compound": "C[N+](C)(C)CCO.[Cl-] [CHOLINE CHLORIDE]", "ABSOLUTE LYMPHOCYTE": "13301.33 CELLS/uL"}

Look up ABSOLUTE LYMPHOCYTE of Nc1ccn([C@@H]2CS[C@H](CO)O2)c(=O)n1 and report it.
7596.17 CELLS/uL

Look up ABSOLUTE LYMPHOCYTE of ClC(Cl)Cl [CHLOROFORM] and report it.
7583.83 CELLS/uL

Look up ABSOLUTE LYMPHOCYTE of COC(=O)C1=C(C)NC(C)=C(C(=O)OCC(C)C)C1c1ccccc1[N+](=O)[O-] (centres undefined) and report it.
10538 CELLS/uL

Look up ABSOLUTE LYMPHOCYTE of CC(C)NCC(O)COc1cccc2ccccc12 (centres undefined) and report it.
12797.33 CELLS/uL

----------
# Species: Rattus norvegicus
# Protocol Summary: DrugMatrix - Regimen: Daily Repeat
# Format: toxicity, organism-based, Sprague-Dawley
# Design: regimen Daily Repeat, gender Male, age 6-8 weeks
# Test Context: in vivo, po, 10 mg/kg, 120 h, tissue Blood, route oral GAVAGE, dose level Low, time 5 day, […]
Measurement Name: NEUTROPHIL (%)
Hi! Could you send only the number? It should be in %, unit omitted.

Look up NEUTROPHIL of CCOC(=O)C1=C(C)NC(C)=C(C(=O)OC)C1c1cccc([N+](=O)[O-])c1 (centres undefined) and report it.
9

Look up NEUTROPHIL of COCCOC(=O)C1=C(C)NC(C)=C(C(=O)OC(C)C)C1c1cccc([N+](=O)[O-])c1 (centres undefined) and report it.
6.67

Look up NEUTROPHIL of CC(C)CC(N(C)C)C1(c2ccc(Cl)cc2)CCC1 (centres undefined) and report it.
10.67

Look up NEUTROPHIL of COc1ccc2cc([C@H](C)C(=O)O)ccc2c1 and report it.
8

----------
# Organism: Rattus norvegicus
# Protocol Summary: DrugMatrix - Regimen: Daily Repeat
# Format: toxicity, organism-based, Sprague-Dawley
# Set-up: regimen Daily Repeat, gender Male, age 6-8 weeks
# Test Context: in vivo, po, 0 mg/kg, 72 h, tissue Blood, route oral GAVAGE, dose level Control, time 3 day, vehicle .5 % CMC
Measurement Name: ABSOLUTE MONOCYTE (CELLS/uL)
Hi! Could you send only the number? It should be in CELLS/uL, unit omitted.

{"Molecule": "C#C[C@]1(O)CC[C@H]2[C@@H]3CCc4cc(OC)ccc4[C@H]3CC[C@@]21C [MESTRANOL]", "ABSOLUTE MONOCYTE [CELLS/uL]": 160.33}
{"Molecule": "CC(C)[C@H]1CC[C@H](C(=O)N[C@H](Cc2ccccc2)C(=O)O)CC1 [NATEGLINIDE]", "ABSOLUTE MONOCYTE [CELLS/uL]": 50.17}
{"Molecule": "Clc1ccc2c(c1)C(N1CCNCC1)=Nc1ccccc1O2 [AMOXAPINE]", "ABSOLUTE MONOCYTE [CELLS/uL]": 474}

Look up ABSOLUTE MONOCYTE of CO[C@H]1/C=C/O[C@@]2(C)Oc3c(C)c(O)c4c(c3C2=O)C2=NC3(CCN(CC(C)C)CC3)NC2=C(NC(=O)/C(C)=C\C=C\[C@H](C)[C@H](O)[C@@H](C)[C@@H](O)[C@@H](C)[C@H](OC(C)=O)[C@@H]1C)C4=O [RIFABUTIN] and report it.
160.33

Look up ABSOLUTE MONOCYTE of OC(CCN1CCCCC1)(c1ccccc1)C1CCCCC1 (stereo not given) [TRIHEXYPHENIDYL] and report it.
85.33

Look up ABSOLUTE MONOCYTE of CN1C(=O)COc2c(C(=O)NC3CN4CCC3CC4)cc(Cl)cc21 (stereo not given) [AZASETRON] and report it.
138.33

----------
Measured CHLORIDE by item
# Species on record: Rattus norvegicus
# Protocol Summary: DrugMatrix - Regimen: Daily Repeat
# Assay type: toxicity, organism-based, Sprague-Dawley
# Parameters: regimen Daily Repeat, gender Male, age 6-8 weeks
# Test Context: in vivo, po, 10 mg/kg, 72 h, tissue Plasma, route oral GAVAGE, dose level Low, time 3 day, […]
# include the unit after the value

// below: answered molecules
{"Molecule": "COCCOC(=O)C1=C(C)NC(C)=C(C(=O)OC(C)C)C1c1cccc([N+](=O)[O-])c1 (centres undefined) [NIMODIPINE]", "CHLORIDE": "99 MEQ/L"}
{"Molecule": "COc1ccc2cc([C@H](C)C(=O)O)ccc2c1 [NAPROXEN]", "CHLORIDE": "103.67 MEQ/L"}
{"Molecule": "CC(C)CC(N(C)C)C1(c2ccc(Cl)cc2)CCC1 (centres undefined) [SIBUTRAMINE]", "CHLORIDE": "100.33 MEQ/L"}

Below: the item to evaluate.
Look up CHLORIDE of CCOC(=O)C1=C(C)NC(C)=C(C(=O)OC)C1c1cccc([N+](=O)[O-])c1 (centres undefined) [NITRENDIPINE] and report it.
98.67 MEQ/L

Data origin: ChEMBL document CHEMBL3885881
